Measured Human Chemotaxis IC50 (GROα) accompanies every entry in the list below.
Molecular target: T1, Human CXCR2 (human, UniProt P25025 1-360)
T1 sequence: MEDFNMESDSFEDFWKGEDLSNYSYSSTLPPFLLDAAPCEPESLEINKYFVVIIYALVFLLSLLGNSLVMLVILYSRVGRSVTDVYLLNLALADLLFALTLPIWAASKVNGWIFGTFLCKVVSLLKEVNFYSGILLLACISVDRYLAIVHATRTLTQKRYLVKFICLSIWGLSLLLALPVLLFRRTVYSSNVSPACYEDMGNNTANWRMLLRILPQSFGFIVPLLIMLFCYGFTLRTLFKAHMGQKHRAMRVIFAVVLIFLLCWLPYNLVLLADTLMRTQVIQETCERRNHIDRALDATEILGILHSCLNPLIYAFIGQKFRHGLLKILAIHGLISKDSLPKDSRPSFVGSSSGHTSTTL
Assay: cell-based or functional assay
Write the number in nM without appending the unit.

1) 127D1 (VHH, Tested as periplasmic extract (pAX50) and as purified His6-tagged protein (pAX100); also called 127D01; not shown: C-terminal c-myc tag and His6 tag coded by the vector) VHH: EVQLVESGGGLVQAGESLRLSCAASGSTFDFKVMGWYRQPPGKQREGVAAIRLSGNMHYAESVKGRFTISKANAKNTVYLQMNSLRPEDTAVYYCKVNIRGQDYWGQGTQVTVSS	14
2) 163E3 (VHH, Tested as periplasmic extract (pAX50) and as purified His6-tagged protein (pAX100); also called 163E03; not shown: C-terminal c-myc tag and His6 tag coded by the vector) VHH: EVQLVESGGGLVQPGGSLRLSCVASGRIFSSNAMGWFRQAPGKEREFVAAITWRSGGSAYYADSAKGRFTISRDNAKNTVYLQMNSLKPEDTAVYYCAAGGSSWLSFPPDYWGQGTQVTVSS	9.3
3) 2B2 (VHH, Tested as periplasmic extract (pAX50) and as purified His6-tagged protein (pAX100); also called 002B02; not shown: C-terminal c-myc tag and His6 tag coded by the vector) VHH: EVQLVESGGELVQPGGSLRLSCAASGSILTINAMGWYRQAPGKQRELVVRRTRGGSTTYQDSVKGRFTISADIAKKTMYLQMNSLKPEDTAVYYCMLDDRGGVYWGQGTQVTVSS	212

Note: attention shifts to another entry.
According to the records, this binder 97A9 (VHH, Tested as periplasmic extract (pAX50) and as purified His6-tagged protein (pAX100); also called 097A09; not shown: C-terminal c-myc tag and His6 tag coded by the vector) VHH: EVQLVESGGGLVQPGGSLRLSCVASGSIVRINTMGWYRQTPGKQRELVADITSGGNINYIDAVKGRFTISRDNTKNTVYLQMNSLKPEDTAVYYCNAEIVVLVGVWTQRARTGNYWGQGTQVTVSS displays Human Chemotaxis IC50 (GROα) of 48.5
